- test_system: T1, Fus1, P11710
- T1 sequence (P11710 432-512, looked up): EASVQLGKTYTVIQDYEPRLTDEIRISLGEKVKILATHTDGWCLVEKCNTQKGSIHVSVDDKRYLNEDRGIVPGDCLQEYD
- run_description: SPOT array
- assay_context: median of control spots 1200
measured_metric: SPOT intensity
Reply with the value as a number alone.

Prompt line: Could you share which SPOT intensity value was measured for "NPLPKEPRLPKRKVA" ?
Response line: 2

Prompt line: SPOT intensity lookup needed for "GTIARPLFLVVLFFI" , thanks.
Response line: 9

Prompt line: Return reported SPOT intensity; argument: "EVTPKVPERPSRRKT"
Response line: 0

Prompt line: So what does the record say about SPOT intensity for "RRRRRPHRIERPLSN" ?
Response line: 43
